TARGET OR SYSTEM: B1 receptors (Oryctolagus cuniculus)
Construct: The thorax was opened and the thoracic aorta carefully removed; from tissue; host or cells: rabbit thoracic aorta spiral strips
Sequence (P48748 whole entry): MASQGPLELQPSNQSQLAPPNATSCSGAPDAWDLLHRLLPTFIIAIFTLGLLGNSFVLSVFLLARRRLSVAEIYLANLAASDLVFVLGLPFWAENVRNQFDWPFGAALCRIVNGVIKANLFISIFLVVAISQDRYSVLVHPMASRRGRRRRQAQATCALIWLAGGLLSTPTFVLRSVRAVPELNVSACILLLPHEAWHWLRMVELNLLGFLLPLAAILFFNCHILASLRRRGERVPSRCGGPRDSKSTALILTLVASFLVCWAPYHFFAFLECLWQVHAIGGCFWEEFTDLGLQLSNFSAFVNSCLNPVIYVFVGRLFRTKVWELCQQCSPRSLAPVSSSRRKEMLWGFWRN
ASSAY TEXT: B1 receptor bioassay, rabbit aorta strips contracted with des-Arg9-BK
Type: cell-based
CONDITIONS: 50% reduction of sustained contraction to 10^-7 M des-Arg9-BK; read-out: Rabbit Aorta p IC50 B1 receptors (converted)
Square brackets hold non-standard residues; d marks the D form. Peptide text beside a SMILES is read from it. Oic = O=C(O)[C@@H]1C[C@@H]2CCCC[C@@H]2N1; dIgl = N[C@@H](C(=O)O)C1Cc2ccccc2C1; Igl = N[C@H](C(=O)O)C1Cc2ccccc2C1; Hyp = O=C(O)[C@@H]1C[C@@H](O)CN1; NMeF = CN[C@@H](Cc1ccccc1)C(=O)O; 2Thi = N[C@@H](Cc1cccs1)C(=O)O
TEST READOUT: IC50 (µM)
Give the value in µM but do not write µM after it.

Worked examples, 8 compounds total:
Task item: Using the record for N=C(N)NCCC[C@H](NC(=O)[C@@H]1C[C@@H]2CCCC[C@@H]2N1C(=O)[C@H](NC(=O)[C@H](CO)NC(=O)[C@H](Cc1cccs1)NC(=O)CNC(=O)[C@@H]1C[C@@H](O)CN1C(=O)[C@@H]1CCCN1C(=O)[C@H](CCCNC(=N)N)NC(=O)[C@@H](CCCNC(=N)N)NC(=O)CC12CC3CC(CC(C3)C1)C2)C1Cc2ccccc2C1)C(=O)O , report its IC50.
Reply: 0.692

Task item: Using the record for N=C(N)NCCC[C@@H](N)C(=O)N[C@@H](CCCNC(=N)N)C(=O)N1CCC[C@H]1C(=O)N1C[C@H](O)C[C@H]1C(=O)NCC(=O)N[C@@H](Cc1ccccc1)C(=O)N[C@@H](CO)C(=O)N[C@@H](C(=O)N1[C@H](C(=O)N[C@@H](CCCNC(=N)N)C(=O)O)C[C@@H]2CCCC[C@@H]21)C1Cc2ccccc2C1 [Compound 15] (H-[dR]RP[Hyp]GFS[dIgl][Oic]R-OH) , report its IC50.
Reply: 0.162

Task item: Using the record for N=C(N)NCCC[C@H](NC(=O)[C@@H]1C[C@@H]2CCCC[C@@H]2N1C(=O)[C@H](NC(=O)[C@H](CO)NC(=O)[C@H](Cc1cccs1)NC(=O)CNC(=O)[C@@H]1C[C@@H](O)CN1C(=O)[C@@H]1CCCN1C(=O)[C@@H](N)CCCNC(=N)N)C1Cc2ccccc2C1)C(=O)O [Compound 5, Arg-Pro-Hyp-Gly-Thi-Ser-DIglb-Oic-Arg] (H-RP[Hyp]G[2Thi]S[dIgl][Oic]R-OH) , report its IC50.
Reply: 1.55

Task item: Using the record for N=C(N)NCCC[C@@H](N)C(=O)N[C@@H](CCCNC(=N)N)C(=O)N1CCC[C@H]1C(=O)N1C[C@H](O)C[C@H]1C(=O)NCC(=O)N[C@H](C(=O)N[C@@H](CO)C(=O)N[C@@H](C(=O)N1[C@H](C(=O)N[C@@H](CCCNC(=N)N)C(=O)O)C[C@@H]2CCCC[C@@H]21)C1Cc2ccccc2C1)C1CCCC1 , report its IC50.
Reply: 0.427

Task item: Using the record for N=C(N)NCCC[C@@H](N)C(=O)N[C@@H](CCCNC(=N)N)C(=O)N1CCC[C@H]1C(=O)N1C[C@H](O)C[C@H]1C(=O)NCC(=O)N[C@@H](Cc1cccs1)C(=O)N[C@@H](CO)C(=O)N[C@@H](C(=O)N1[C@H](C(=O)N[C@@H](CCCNC(=N)N)C(=O)O)C[C@@H]2CCCC[C@@H]21)C1Cc2ccccc2C1 , report its IC50.
Reply: 0.141

Task item: Using the record for CN(C(=O)[C@H](CCCNC(=N)N)NC(=O)[C@H](N)CCCNC(=N)N)[C@@H](Cc1ccccc1)C(=O)N1C[C@H](O)C[C@H]1C(=O)NCC(=O)N[C@H](C(=O)N[C@@H](CO)C(=O)N[C@@H](C(=O)N1[C@H](C(=O)N[C@@H](CCCNC(=N)N)C(=O)O)C[C@@H]2CCCC[C@@H]21)C1Cc2ccccc2C1)C1Cc2ccccc2C1 [Compound 45] (H-[dR]R[NMeF][Hyp]G[Igl]S[dIgl][Oic]R-OH) , report its IC50.
Reply: 2.88

Task item: Using the record for N=C(N)NCCC[C@H](NC(=O)[C@@H]1C[C@@H]2CCCC[C@@H]2N1C(=O)[C@H](NC(=O)[C@H](CO)NC(=O)[C@@H](NC(=O)CNC(=O)[C@@H]1C[C@@H](O)CN1C(=O)[C@@H]1CCCN1C(=O)[C@H](CCCNC(=N)N)NC(=O)[C@@H](CCCNC(=N)N)NC(=O)C1=CN2CCC1CC2)C1Cc2ccccc2C1)C1Cc2ccccc2C1)C(=O)O , report its IC50.
Reply: 1.17

Task item: Using the record for N=C(N)NCCC[C@@H](N)C(=O)N[C@@H](CCCNC(=N)N)C(=O)N1CCC[C@H]1C(=O)N1C[C@H](O)C[C@H]1C(=O)NCC(=O)N[C@H](C(=O)N[C@@H](CO)C(=O)N[C@@H](C(=O)N1[C@H](C(=O)N[C@@H](CCCNC(=N)N)C(=O)O)C[C@@H]2CCCC[C@@H]21)C1Cc2ccccc2C1)C1Cc2ccccc2C1 , report its IC50.
Reply: 0.251

***
Task item: Using the record for N=C(N)NCCC[C@@H](N)C(=O)N[C@@H](CCCNC(=N)N)C(=O)N1CCC[C@H]1C(=O)N1C[C@H](O)C[C@H]1C(=O)NCC(=O)N[C@@H](Cc1cccs1)C(=O)N[C@@H](CO)C(=O)N[C@@H](C(=O)N1Cc2ccccc2C[C@H]1C(=O)N[C@@H](CCCNC(=N)N)C(=O)O)C1Cc2ccccc2C1 , report its IC50.
Reply: 1.78

Task item: Using the record for N=C(N)NCCC[C@H](NC(=O)[C@@H]1C[C@@H]2CCCC[C@@H]2N1C(=O)[C@H](NC(=O)[C@H](CO)NC(=O)[C@@H](NC(=O)CNC(=O)[C@@H]1C[C@@H](O)CN1C(=O)[C@@H]1CCCN1C(=O)[C@H](CCCNC(=N)N)NC(=O)[C@@H](CCCNC(=N)N)NC(=O)C12CC3CC(CC(C3)C1)C2)C1Cc2ccccc2C1)C1Cc2ccccc2C1)C(=O)O , report its IC50.
Reply: 1.78
